System: HCT116/VM46 (a vinblastine-resistant strain of HCT116) cells
Test: Cell growth inhibition assay, HCT116/VM46
Type: cell-based, human
Conditions: 72 hours incubation, phosphatase assay; Pgp-overexpressing resistant line
// returns 0 unless IC50 is strictly below 9 nM, in which case 1

Solved cases below.
compound | discrete-label
CC[C@]1(NC(=O)N2Cc3ccc(NC(=O)c4cccnc4)cc3C2)C[C@H]2CN(CCc3c([nH]c4ccccc34)[C@@](C(=O)OC)(c3cc4c(cc3OC)N(C)[C@H]3[C@@](O)(C(=O)OC)[C@H](OC(C)=O)[C@]5(CC)C=CCN6CC[C@]43[C@@H]65)C2)C1 | 1
CC[C@]1(NC(=O)N2CCC(C#N)C2)C[C@H]2CN(CCc3c([nH]c4ccccc34)[C@@](C(=O)OC)(c3cc4c(cc3OC)N(C)[C@H]3[C@@](O)(C(=O)OC)[C@H](OC(C)=O)[C@]5(CC)C=CCN6CC[C@]43[C@@H]65)C2)C1 (single isomer, unassigned) [Compound 21] | 0
CC[C@]1(NC(=O)N2C3CCC2CC3)C[C@H]2CN(CCc3c([nH]c4ccccc34)[C@@](C(=O)OC)(c3cc4c(cc3OC)N(C)[C@H]3[C@@](O)(C(=O)OC)[C@H](OC(C)=O)[C@]5(CC)C=CCN6CC[C@]43[C@@H]65)C2)C1 | 0
CC[C@]1(NC(=O)N2Cc3ccc(NC(=O)c4ccncn4)cc3C2)C[C@H]2CN(CCc3c([nH]c4ccccc34)[C@@](C(=O)OC)(c3cc4c(cc3OC)N(C)[C@H]3[C@@](O)(C(=O)OC)[C@H](OC(C)=O)[C@]5(CC)C=CCN6CC[C@]43[C@@H]65)C2)C1 | 1
CC[C@]1(NC(=O)N2Cc3ccc(NC(=O)C=C(C)C)cc3C2)C[C@H]2CN(CCc3c([nH]c4ccccc34)[C@@](C(=O)OC)(c3cc4c(cc3OC)N(C)[C@H]3[C@@](O)(C(=O)OC)[C@H](OC(C)=O)[C@]5(CC)C=CCN6CC[C@]43[C@@H]65)C2)C1 | 1
CC[C@]1(NC(=O)N2CCC(C#N)C2)C[C@H]2CN(CCc3c([nH]c4ccccc34)[C@@](C(=O)OC)(c3cc4c(cc3OC)N(C)[C@H]3[C@@](O)(C(=O)OC)[C@H](OC(C)=O)[C@]5(CC)C=CCN6CC[C@]43[C@@H]65)C2)C1 (single isomer, unassigned) [Compound 20] | 0
CC[C@]1(NC(=O)N2Cc3ccc(NC(=O)c4ccccc4)cc3C2)C[C@H]2CN(CCc3c([nH]c4ccccc34)[C@@](C(=O)OC)(c3cc4c(cc3OC)N(C)[C@H]3[C@@](O)(C(=O)OC)[C@H](OC(C)=O)[C@]5(CC)C=CCN6CC[C@]43[C@@H]65)C2)C1 | 0
CC[C@]1(NC(=O)N2Cc3ccc(N)cc3C2)C[C@H]2CN(CCc3c([nH]c4ccccc34)[C@@](C(=O)OC)(c3cc4c(cc3OC)N(C)[C@H]3[C@@](O)(C(=O)OC)[C@H](OC(C)=O)[C@]5(CC)C=CCN6CC[C@]43[C@@H]65)C2)C1 | 1
CCC1(NC(=O)N2CCC(OC)C2)CC2CN(CCc3c([nH]c4ccccc34)C(C(=O)OC)(c3cc4c(cc3OC)N(C)C3C(O)(C(=O)OC)C(OC(C)=O)C5(CC)C=CCN6CCC43C65)C2)C1 (mixture of isomers) | 0
CC[C@]1(NC(=O)N2CCC(N(C)C)C2)C[C@H]2CN(CCc3c([nH]c4ccccc34)[C@@](C(=O)OC)(c3cc4c(cc3OC)N(C)[C@H]3[C@@](O)(C(=O)OC)[C@H](OC(C)=O)[C@]5(CC)C=CCN6CC[C@]43[C@@H]65)C2)C1 (single isomer, unassigned) [Compound 11] | 0

Here's an entry: `CCCCCC(=O)Nc1ccc2c(c1)CN(C(=O)N[C@@]1(CC)C[C@H]3CN(CCc4c([nH]c5ccccc45)[C@@](C(=O)OC)(c4cc5c(cc4OC)N(C)[C@H]4[C@@](O)(C(=O)OC)[C@H](OC(C)=O)[C@]6(CC)C=CCN7CC[C@]54[C@@H]76)C3)C1)C2` . Is its IC50 below 9 nM?
0

Here's an entry: `CC[C@]1(NC(=O)N2Cc3ccc(NC(C)=O)cc3C2)C[C@H]2CN(CCc3c([nH]c4ccccc34)[C@@](C(=O)OC)(c3cc4c(cc3OC)N(C)[C@H]3[C@@](O)(C(=O)OC)[C@H](OC(C)=O)[C@]5(CC)C=CCN6CC[C@]43[C@@H]65)C2)C1` . Is its IC50 below 9 nM?
0

Here's an entry: `CC[C@]1(NC(=O)N2Cc3ccc(NC)cc3C2)C[C@H]2CN(CCc3c([nH]c4ccccc34)[C@@](C(=O)OC)(c3cc4c(cc3OC)N(C)[C@H]3[C@@](O)(C(=O)OC)[C@H](OC(C)=O)[C@]5(CC)C=CCN6CC[C@]43[C@@H]65)C2)C1` . Is its IC50 below 9 nM?
1

Here's an entry: `CC[C@]1(NC(=O)N2Cc3ccc(NC(=O)c4ccncc4)cc3C2)C[C@H]2CN(CCc3c([nH]c4ccccc34)[C@@](C(=O)OC)(c3cc4c(cc3OC)N(C)[C@H]3[C@@](O)(C(=O)OC)[C@H](OC(C)=O)[C@]5(CC)C=CCN6CC[C@]43[C@@H]65)C2)C1` . Is its IC50 below 9 nM?
0
